- Test Summary: collision cross section in nitrogen (drift tube, single-field); higher = larger gas-phase ion size;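 note: chemical standards at 10 µM analysed by drift tube IMS-QTOF MS in about 3.95 torr nitrogen, mean of duplicate injections differing ≤1%, mass error below 10 ppm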
- Particulars: ion type: [M-H]; ion source: ESI; ion mode: Negative
Measurement Label: collision cross section in nitrogen (Å²)
Numbers only, in Å².

Compound | Unit String | Reported Result
Cc1[nH]c(=O)n(C(C)(C)C)c(=O)c1Cl | Å² | 144.9
Sc1nc2ccccc2s1 | Å² | 128.2
Nc1ccc(Cl)c([N+](=O)[O-])c1 | Å² | 126.1
O=c1oc2ccccc2c(O)c1C(CC(O)c1ccc(-c2ccc(Br)cc2)cc1)c1ccccc1 (stereo not given) | Å² | 215.1
Oc1ccncc1 | Å² | 113.9

Give one value of collision cross section in nitrogen per listed compound.
1. Nc1nc[nH]n1
2. Cc1oc2c(NC(=O)c3c(Cl)cccc3Cl)cccc2c1C(C)(C)O
3. CC(C)=CCCC(C)CC(=O)O (stereo not given)
4. O=C(O)C[C@H](O)C[C@H](O)/C=C/c1c(C2CC2)nc2ccccc2c1-c1ccc(F)cc1

output:
[113.2, 191.5, 148.8, 207.8]

input: Fill blank: measured collision cross section in nitrogen of the compound CCc1ccc(O)cc1 is ____.
output: 128.7

---

- Test Summary: collision cross section in nitrogen (drift tube, single-field); higher = larger gas-phase ion size
- Particulars: ion type: [M+Na]; ion source: ESI; ion mode: Positive
Measurement Label: collision cross section in nitrogen (Å²)
Give bare numbers, in Å².

Compound | Unit String | collision cross section in nitrogen
CCCOP(=O)(OCCC)OCCC [Tripropyl phosphate] | Å² | 168.5
COc1ccc(OC)c(NC(=O)CC(C)=O)c1 [N-(2,5-Dimethoxyphenyl)-3-oxobutanamide] | Å² | 159.2
C=C(C)C(=O)OCCCCCCOC(=O)C(=C)C [1,6-Hexanediol dimethacrylate] | Å² | 167.3

Now look at this entry.
input: Fill blank: measured collision cross section in nitrogen of the compound CC1(C)O[C@@H]2C[C@H]3[C@@H]4C[C@H](F)C5=CC(=O)C=C[C@]5(C)[C@@]4(F)[C@@H](O)C[C@]3(C)[C@]2(C(=O)CO)O1 [Fluocinolone acetonide] is ____.
output: 226.8

---

Kindly supply the reported collision cross section in nitrogen values for the records listed here.
- Test Summary: collision cross section in nitrogen (drift tube, single-field); higher = larger gas-phase ion size
- Particulars: ion type: [M+Na]; ion source: ESI; ion mode: Positive

Compound | Reported Result
CNC(=O)CSP(=O)(OC)OC [Omethoate] | 145.9 Å²
NCCCOCCOCCOCCCN [3,3'-[Oxybis(ethane-2,1-diyloxy)]dipropan-1-amine] | 150.3 Å²
CCOC(=O)C1=NN(c2ccccc2)C(=O)C1 [Ethyl 5-oxo-1-phenyl-4,5-dihydro-1H-pyrazole-3-carboxylate] | 164.9 Å²
CCCCC(CC)C(=O)OCCOCCOCCOC(=O)C(CC)CCCC (configuration not stated) [Triethylene glycol bis(2-ethylhexanoate)] | 207.3 Å²
O=C(O[C@@H]1Cc2c(O)cc(O)cc2O[C@@H]1c1cc(O)c(O)c(O)c1)c1cc(O)c(O)c(O)c1 [(-)-Epigallocatechin gallate] | 212.4 Å²
Cc1nn(-c2cc(NS(C)(=O)=O)c(Cl)cc2Cl)c(=O)n1C(F)F | 184 Å²

Now look at this entry.
input: Fill blank: measured collision cross section in nitrogen of the compound CCCCC(CC)COC(=O)c1ccccc1C(=O)OCC(CC)CCCC (configuration not stated) [Di(2-ethylhexyl) phthalate] is ____.
output: 215.9 Å²

Cited source: the supplement of paper PMC12317010
